assay.notes: qHTS of pediatric cancer cell lines to identify multiple opportunities for drug repurposing: Primary screen for NB-EBc1 cells (AID 1347095)
test.parameters: NB-EBc1 neuroblastoma viability, CellTiter-Glo luminescence, 48 h; series mostly up to 46 µM
Results filed as inconclusive are left out. Active and inactive are the calls of the source. The call rests on the fitted dose curve; in most records, active means well fitted cell-killing curve with a large enough effect; inconclusive means small, poorly fitted or top-dose-only effect; inactive means no such curve, though single readings can be large or run the other way.
Your response should consist of one outcome taken from true = active, false = inactive

Worked examples follow.
CCCNC(=O)NS(=O)(=O)c1ccc(Cl)cc1 | false
O=C(N[C@@H](c1ccccc1)[C@@H]1CCCCN1)c1cccc(C(F)(F)F)c1Cl | true
CN(C[C@@H]1COCCO1)S(=O)(=O)Nc1ccc2ccc3ncc(-c4cnn(C)c4)cc3c(=O)c2c1 | true
CC(=O)c1ccc(S(=O)(=O)NC(=O)NC2CCCCC2)cc1 | false
N[C@@]1(C(=O)O)CS(=O)(=O)[C@H]2[C@H](C(=O)O)[C@H]21 | false

What outcome does the record of this test show for C[C@H](NC(=O)C(=O)Nc1ccccc1C(C)(C)C)C(=O)N[C@@H](CC(=O)O)C(=O)COc1c(F)c(F)cc(F)c1F ?
false

Check the results log: what was the call for N#CC1(c2ccc(NC(=O)c3cccnc3NCc3ccncc3)cc2)CCCC1 ?
false

Can you look up the reported call for CC(C)n1cnc2c(NCCCCCCNC(=O)OC(C)(C)C)nc(NCCO)nc21 for me?
false

How was CC(=O)Oc1cc2c(s1)CCN(C(C(=O)C1CC1)c1ccccc1F)C2 (centres undefined) classified in this test?
true

Status in this test for CCOC(=O)O[C@]1(C(=O)OCCl)CC[C@@H]2[C@H]3CCC4=CC(=O)C=C[C@]4(C)[C@@H]3[C@@H](O)C[C@@]21C ?
false

Kindly provide the recorded test outcome for the following compound: N#C[C@H]1C[C@H]2C[C@@H]2N1C(=O)[C@@H](N)C12CC3CC(CC(O)(C3)C1)C2
false

Would you mind telling me which call this test gave Cc1ccc(C(C)(O)c2nc3ccccc3s2)c(C)c1 (centres undefined) ?
true

Recorded call for O=c1c(-c2ccc(O)cc2)coc2cc(O[C@@H]3O[C@H](CO)[C@H](O)[C@H](O)[C@H]3O)ccc12 ?
false

// param item: COCCOc1nc(-c2ccc(Cl)c(Cl)c2)n(-c2ccc(NC(=O)CCl)cc2)n1 ; yields the recorded call
true

What did this assay record as the result for CCCCCN(C)CCC(O)(P(=O)(O)O)P(=O)(O)O ?
false

How was COc1cc(Nc2ncc(F)c(Nc3ccc4c(n3)NC(=O)C(C)(C)O4)n2)cc(OC)c1OC classified in this test?
true
